Experiment: Blood levels after a single i.p. dose
Format: in vivo
Conditions: C57BL/6, mouse, ip, 2 h post-injection, single 30 mg/kg i.p. dose, mean±SEM, n=3
result.type: concentration at 2 h (nM)
Please state the figure in nM; there is no need to write the unit.

Can you look up the measured concentration at 2 h of CCCCCCCC/C=C\CCCCCCCC(=O)N[C@@H](Cc1ccccc1)C(=O)O [C18:1-Phe, Oleoyl-L-phenylalanine] for me?
3000

* * *

Test: Blood levels after a single i.p. dose
Assay type: in vivo
Conditions: C57BL/6, mouse, ip, 6 h post-injection, single 30 mg/kg i.p. dose, mean±SEM, n=3
result.type: concentration at 6 h
Report field: quantity (unit follows the number).

Can you look up the measured concentration at 6 h of CCCCCCCC/C=C\CCCCCCCC(=O)N[C@@H](Cc1ccccc1)C(=O)O [C18:1-Phe, Oleoyl-L-phenylalanine] for me?
400 nM

These measurements were taken from patent US12194080B2.
